- Tested on: SF-268 CNS
- assay overview: NCI tumour cell line growth inhibition, 48 h; in the data active means GI50 below about 0.43 µM; inactive means the rest
API: response.call in active, inactive

Recorded results for 5 compounds are shown here.
compound	class
COC(=O)c1cc2c(c(C(=O)OC)c1O)C(=O)C=CC2=O	inactive
O=C(C[C@@H](C(=O)NCc1cccc(C(F)(F)F)c1)N1C(=O)[C@@H](N2C(=O)OC[C@@H]2c2ccccc2)[C@H]1/C=C/c1ccccc1)NC1CCN(Cc2ccccc2)CC1	inactive
COC(=O)[C@]12CCC(C)(C)C[C@H]1C1=CC[C@@H]3[C@@]4(C)C/C(=C/c5cccnc5)C(=O)C(C)(C)[C@@H]4CC[C@@]3(C)[C@]1(C)CC2	inactive
COc1ccc(OC(=O)O[C@H]2[C@H](O[C@H]3[C@@H](O)COC(O[C@H]4C[C@H]5[C@@H]6CC=C7C[C@@H](O)CC[C@]7(C)[C@H]6CC[C@]5(C)[C@H]4[C@H](C)C(=O)CCC(C)C)[C@@H]3OC(C)=O)OC[C@@H](O)[C@@H]2O)cc1 (stereo partly specified)	active
CCCCNC(=O)NS(=O)(=O)c1ccc(N2N=C(c3ccc(C)cc3C)CC2c2ccc(N(C)C)cc2)cc1 (stereo unspecified)	inactive

We next turn to a different compound, shown below.
For C[C@]12CC[C@@H]3c4ccc(O)cc4C[C@@H](CCCCCCCCCS(=O)CCCC(F)(F)C(F)(F)F)[C@H]3[C@@H]1CC[C@@H]2O (stereo partly specified) , what call appears in the results of this test?
inactive

This collection of values is drawn from PubChem BioAssay (NCI).
